# measurement.protocol: small-molecule microarray binders of probe aWnt5a, primary screen, biochemical, biotinylated probe, 635/667 nm fluorescence (AID 1113);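 further: score merges 667 nm fluorescence intensity with signal-to-noise per printed feature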
# particulars: higher = more signal
Parameter composite z-score: see the listing below.
Please give only the number in your answer, with no unit.

For orientation, consider the following solved cases.
INSERT INTO assay_data (compound, recorded_result) VALUES
  ('CCCN1C(=O)[C@]2(COC(c3ccc(OCCCO)cc3)=N2)Cc2ccccc21', -0.0462),
  ('COC(=O)[C@@]1(Cc2ccc(OC)cc2)[C@H]2c3cc(C(=O)N4CCCC4)n(Cc4ccccn4)c3C[C@H]2CN1C(=O)c1ccccc1', 0.202),
  ('C=C(C(=O)CC[C@H](OC(C)=O)c1ccc(OCCO)cc1)C(C)C', -0.1),
  ('[N-]=[N+]=NCc1ccccc1C[C@@]1(C(=O)NCC(O)CO)N=C(c2ccc(OCCCO)cc2)O[C@@H]1c1ccccc1CN=[N+]=[N-] (stereo partly drawn)', 0.0219),
  ('C=CCN1C(=O)[C@]2(O[C@H](CCO)[C@@H]([Si](C)(C)c3ccc(OC)cc3)[C@@H]2C)c2cc(NC(=O)[C@H](C)O)ccc21', -0.0799);

Please supply the value of reported composite z-score for the item COC(=O)c1ccc(C23CC2(C(NP(=O)(c2ccccc2)c2ccccc2)c2ccccc2)C3)cc1 (stereo not drawn)
0.195

Please supply the value of reported composite z-score for the item CC(C)N1C(=O)c2ccccc2[C@@H](C(=O)NCCCN(C)C)[C@@H]1c1ccc(CO)cc1
0.026

Please supply the value of reported composite z-score for the item C=CC(COC(C)=O)NS(=O)(=O)c1ccc(Br)cc1 (stereo not drawn)
0.093
